The reported measurements were obtained from patent US20260242478A1.

target: T1, Anti-PSMA Fab; experiment: clonal phage ELISA; biotinylated anti-PSMA Fab on neutravidin plate; anti-M13 HRP detection; competitor: PSMA antigen pre-added
T1 construct: Biotinylated and captured on neutravidin plates in the phage ELISA; also called 006 PSMA Fab
OBSERVABLE: Phage binding ELISA signal, Anti-PSMA Fab with PSMA antigen
One number for each entry.

Check out these entries, answers already filled in.
[
  {
    "BINDER": "DWVMCKPEWMCAGF [Phage-3625]",
    "VALUE OBSERVED": 0.0618
  },
  {
    "BINDER": "ELHLCIPSWMCTGL [Phage-3630]",
    "VALUE OBSERVED": 0.104
  }
]

Each of the following entries comes with a recorded value; kindly state Phage binding ELISA signal, Anti-PSMA Fab with PSMA antigen for each.
1. AGYACVPSWMCEGF [Phage-3626]
2. DLMMCVPAWMCEGF [Phage-3629]

Reply |
1: 0.105; 2: 0.0929
